Biological target: GABA-B receptor (Rattus norvegicus (Rat), UniProt O88871+Q9Z0U4)
Sequence (Q9Z0U4 17-960): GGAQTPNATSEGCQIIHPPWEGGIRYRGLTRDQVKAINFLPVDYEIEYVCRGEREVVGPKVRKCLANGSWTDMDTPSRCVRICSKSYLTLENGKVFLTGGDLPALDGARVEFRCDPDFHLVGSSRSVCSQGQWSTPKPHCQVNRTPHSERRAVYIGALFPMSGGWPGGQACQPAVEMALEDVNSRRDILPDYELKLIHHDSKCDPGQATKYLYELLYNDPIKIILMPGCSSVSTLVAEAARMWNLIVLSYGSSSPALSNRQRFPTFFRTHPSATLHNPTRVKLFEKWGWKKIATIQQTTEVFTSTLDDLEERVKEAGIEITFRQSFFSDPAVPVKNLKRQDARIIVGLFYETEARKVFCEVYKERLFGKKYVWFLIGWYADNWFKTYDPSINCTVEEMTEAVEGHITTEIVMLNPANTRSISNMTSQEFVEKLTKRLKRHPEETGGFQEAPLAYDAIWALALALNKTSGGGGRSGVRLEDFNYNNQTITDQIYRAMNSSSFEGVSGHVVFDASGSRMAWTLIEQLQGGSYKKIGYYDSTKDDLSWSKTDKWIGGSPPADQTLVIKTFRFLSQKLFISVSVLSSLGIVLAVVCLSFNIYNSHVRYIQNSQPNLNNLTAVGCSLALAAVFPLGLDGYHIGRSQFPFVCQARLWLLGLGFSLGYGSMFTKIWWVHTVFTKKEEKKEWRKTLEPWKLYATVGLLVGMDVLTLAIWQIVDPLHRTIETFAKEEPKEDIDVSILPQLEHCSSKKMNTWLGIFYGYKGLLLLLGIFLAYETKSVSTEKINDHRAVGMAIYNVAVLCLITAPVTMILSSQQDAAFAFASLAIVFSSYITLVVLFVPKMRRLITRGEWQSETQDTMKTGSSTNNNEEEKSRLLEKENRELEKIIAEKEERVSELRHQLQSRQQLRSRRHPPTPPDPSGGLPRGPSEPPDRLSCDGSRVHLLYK
Sequence (O88871 41-940): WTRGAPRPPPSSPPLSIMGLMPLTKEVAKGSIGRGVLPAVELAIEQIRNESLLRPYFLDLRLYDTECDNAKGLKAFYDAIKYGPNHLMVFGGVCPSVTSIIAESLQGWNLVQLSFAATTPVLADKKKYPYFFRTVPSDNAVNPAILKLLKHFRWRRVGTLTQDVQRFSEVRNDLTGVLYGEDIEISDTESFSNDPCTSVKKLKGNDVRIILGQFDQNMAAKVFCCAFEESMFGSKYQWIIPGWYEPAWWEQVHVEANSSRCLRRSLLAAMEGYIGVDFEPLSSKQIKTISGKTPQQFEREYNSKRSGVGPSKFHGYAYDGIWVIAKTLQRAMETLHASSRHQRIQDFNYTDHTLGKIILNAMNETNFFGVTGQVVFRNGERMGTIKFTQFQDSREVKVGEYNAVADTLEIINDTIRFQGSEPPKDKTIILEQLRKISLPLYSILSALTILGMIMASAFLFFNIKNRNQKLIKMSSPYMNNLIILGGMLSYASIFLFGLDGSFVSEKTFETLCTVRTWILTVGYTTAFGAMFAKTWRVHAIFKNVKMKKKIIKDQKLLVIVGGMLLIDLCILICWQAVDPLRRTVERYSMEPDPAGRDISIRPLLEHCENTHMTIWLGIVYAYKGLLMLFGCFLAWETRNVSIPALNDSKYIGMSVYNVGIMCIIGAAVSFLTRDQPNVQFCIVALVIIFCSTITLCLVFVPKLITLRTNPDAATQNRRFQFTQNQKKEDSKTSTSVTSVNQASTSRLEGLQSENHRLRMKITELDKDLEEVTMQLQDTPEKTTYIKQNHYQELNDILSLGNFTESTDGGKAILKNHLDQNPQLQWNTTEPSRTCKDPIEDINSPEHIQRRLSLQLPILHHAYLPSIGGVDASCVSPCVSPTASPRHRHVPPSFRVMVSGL
Assay: [35S]GTPgS Binding Assay (rat brain cortex membranes, native receptor)
Conditions: rat cortical membranes; in the presence of 1 μM GABA (EC25); basal binding 0%, maximal binding (1 mM GABA) 100%
Description: Preparation of Rat Brain Membranes for Native Receptor Assays Membranes from rat brain cortex were prepared as described in detail by Olpe et al. and stored at concentrations of 1.66 mg/mL protein at −80° C. until required. (Olpe, H.-R, et al. Eur J Pharmacol 1990; 187: 27-38). [^35S]GTPgS Binding Assay The samples were incubated at room temperature for 60 minutes on a shaker. […] Nonspecific binding was measured in the presence of unlabeled 10 μM of GTPgS (Millipore) and without GABA. […]
pEC50: −log10 of the molar value.
Record yes whenever pEC50 is at 6 or higher; record no when lower.

{"compound": "COc1ccccc1-c1nn(Cc2ccc(Cl)cc2)c(=O)c2c(C)noc12", "assigned_class": "no"}
{"compound": "CC(=O)Nc1cccc(-c2nn(Cc3ccc(C(F)(F)F)cc3)c(=O)c3c(C)noc23)c1", "assigned_class": "no"}
{"compound": "CC(=O)Nc1c(F)ccc(-c2nn([C@H](C)c3ccc(C(F)(F)F)cc3)c(=O)c3c(C)noc23)c1C", "assigned_class": "no"}
{"compound": "CC(=O)Nc1ccc(OC(F)(F)F)c(-c2nn(C(C)c3ccc(Cl)cc3)c(=O)c3c(C)noc23)c1 (stereo not shown)", "assigned_class": "yes"}
{"compound": "CC(=O)Nc1cc(-c2nn(Cc3ccc(Cl)cc3)c(=O)c3c(C)noc23)ccc1F", "assigned_class": "no"}
{"compound": "COc1ccc(OC)c(-c2nn(Cc3ccc(Cl)cc3)c(=O)c3c(C4CC4)noc23)c1", "assigned_class": "yes"}
{"compound": "Cc1noc2c(-c3ccc(F)c(F)c3)nn(Cc3ccc(Cl)cc3)c(=O)c12", "assigned_class": "no"}
{"compound": "Cc1noc2c(-c3cccc(S(N)(=O)=O)c3)nn(C(C)c3ccc(Cl)cc3)c(=O)c12 (stereo not shown)", "assigned_class": "yes"}
{"compound": "Cc1noc2c(-c3cccnc3)nn(Cc3ccc(Cl)cc3)c(=O)c12", "assigned_class": "no"}
{"compound": "CNC(=O)c1ccc(OC)c(-c2nn(C(C)c3ccc(Cl)cc3)c(=O)c3c(C)noc23)c1 (stereo not shown)", "assigned_class": "yes"}
{"compound": "COc1ccc(OC)c(-c2nn([C@H](C)c3ccc(Cl)cc3)c(=O)c3c(C4CC4)noc23)c1", "assigned_class": "no"}
{"compound": "CNC(=O)c1ccc(OC)c(-c2nn([C@@H](C)c3ccc(Cl)cc3)c(=O)c3c(C)noc23)c1", "assigned_class": "yes"}

---

target: GABA-B receptor (Rattus norvegicus (Rat), UniProt O88871+Q9Z0U4); test: [35S]GTPgS Binding Assay (rat brain cortex membranes, native receptor); conditions: rat cortical membranes; in the presence of 1 μM GABA (EC25); basal binding 0%, maximal binding (1 mM GABA) 100%

{"compound": "CC(=O)Nc1ccc(C)c(-c2nn(C(C)c3ccc(Cl)cc3)c(=O)c3c(C)noc23)c1 (stereo not drawn) [Example 18]", "EC50, nM": 389}
{"compound": "Cc1noc2c(-c3cccs3)nn(Cc3ccc(Cl)cc3)c(=O)c12 [Example 56]", "EC50, nM": 982}
{"compound": "Cc1noc2c(-c3cnc4cc[nH]c4c3)nn(C(C)c3ccc(Cl)cc3)c(=O)c12 (stereo not drawn) [Example 116]", "EC50, nM": 855}

---

biological target: GABA-B receptor (Rattus norvegicus (Rat), UniProt O88871+Q9Z0U4); experiment: [35S]GTPgS Binding Assay (rat brain cortex membranes, native receptor); conditions: rat cortical membranes; in the presence of 1 μM GABA (EC25); basal binding 0%, maximal binding (1 mM GABA) 100%
Field: label. Allowed values: satisfied (EC50 < 1000 nM) or not satisfied (EC50 >= 1000 nM).

{"molecule": "Cc1noc2c(-c3cccnc3)nn(C(C)c3ccc(Cl)cc3)c(=O)c12 (centres unmarked)", "assigned_class": "not satisfied"}
{"molecule": "Cc1noc2c(-c3cccc(F)c3)nn(Cc3ccc(Cl)cc3)c(=O)c12", "assigned_class": "not satisfied"}
{"molecule": "CCc1noc2c(-c3cccc(NC(C)=O)c3)nn(Cc3ccc(Cl)cc3)c(=O)c12", "assigned_class": "not satisfied"}
{"molecule": "COc1ccc(C(=O)N(C)C)cc1-c1nn(C(C)c2ccc(Cl)cc2)c(=O)c2c(C)noc12 (centres unmarked)", "assigned_class": "satisfied"}
{"molecule": "Cc1noc2c(-c3cc(F)nc(F)c3)nn(C(C)c3ccc(Cl)cc3)c(=O)c12 (centres unmarked)", "assigned_class": "not satisfied"}
{"molecule": "COCc1noc2c(-c3cc(OC)ccc3OC)nn(Cc3ccc(Cl)cc3)c(=O)c12", "assigned_class": "not satisfied"}
{"molecule": "Cc1ccccc1-c1nn(Cc2ccc(Cl)cc2)c(=O)c2c(C)noc12", "assigned_class": "not satisfied"}
{"molecule": "COc1ccc(C(=O)O)cc1-c1nn(C(C)c2ccc(Cl)cc2)c(=O)c2c(C)noc12 (centres unmarked)", "assigned_class": "satisfied"}
{"molecule": "Cc1noc2c(-c3cncnc3)nn(C(C)c3ccc(Cl)cc3)c(=O)c12 (centres unmarked)", "assigned_class": "not satisfied"}
{"molecule": "CC(=O)Nc1ccc(C)c(-c2nn([C@H](C)c3ccc(C(F)(F)F)cc3)c(=O)c3c(C)noc23)c1", "assigned_class": "satisfied"}
{"molecule": "COc1ccc(OC)c(-c2nn(Cc3ccc(C(F)(F)F)cc3)c(=O)c3c(C)noc23)c1", "assigned_class": "not satisfied"}
{"molecule": "CC(=O)Nc1cccc(-c2nn([C@@H](C)c3ccc(Cl)cc3)c(=O)c3c(C)noc23)c1", "assigned_class": "not satisfied"}
{"molecule": "COc1ccc(-c2nn(Cc3ccc(Cl)cc3)c(=O)c3c(C)noc23)cc1", "assigned_class": "not satisfied"}
{"molecule": "COc1ccc(NC(C)=O)cc1-c1nn([C@@H](C)c2ccc(Cl)cc2)c(=O)c2c(C)noc12", "assigned_class": "satisfied"}
{"molecule": "COc1ccc(C(F)(F)F)cc1-c1nn(C(C)c2ccc(Cl)cc2)c(=O)c2c(C)noc12 (centres unmarked)", "assigned_class": "satisfied"}
{"molecule": "Cc1noc2c(-c3cccc(N)c3C(N)=O)nn(C(C)c3ccc(Cl)cc3)c(=O)c12 (centres unmarked)", "assigned_class": "not satisfied"}
{"molecule": "Cc1noc2c(-c3ccc(F)cc3)nn(Cc3ccc(Cl)cc3)c(=O)c12", "assigned_class": "not satisfied"}
{"molecule": "CC(=O)Nc1ccc(C)c(-c2nn(Cc3ccc(C(F)(F)F)cc3)c(=O)c3c(C)noc23)c1", "assigned_class": "not satisfied"}
{"molecule": "COc1ccc(NC(C)=O)cc1-c1nn(C(C)c2ccc(C(F)(F)F)cc2)c(=O)c2c(C)noc12 (centres unmarked)", "assigned_class": "satisfied"}
{"molecule": "CCNC(=O)c1ccc(OC)c(-c2nn(C(C)c3ccc(Cl)cc3)c(=O)c3c(C)noc23)c1 (centres unmarked)", "assigned_class": "satisfied"}
{"molecule": "Cc1noc2c(-c3cncc(F)c3)nn(C(C)c3ccc(Cl)cc3)c(=O)c12 (centres unmarked)", "assigned_class": "not satisfied"}
{"molecule": "COc1ccc(NC(C)=O)cc1-c1nn(Cc2ccc(Cl)cc2)c(=O)c2c(C)noc12", "assigned_class": "satisfied"}
{"molecule": "Cc1noc2c(-c3cccnc3N)nn(C(C)c3ccc(Cl)cc3)c(=O)c12 (centres unmarked)", "assigned_class": "not satisfied"}
{"molecule": "COc1ccc(OC)c(-c2nn(CCc3ccc(Cl)cc3)c(=O)c3c(C)noc23)c1", "assigned_class": "not satisfied"}
{"molecule": "COc1ccc(NC(C)=O)cc1-c1nn([C@H](C)c2ccc(Cl)cc2)c(=O)c2c(C)noc12", "assigned_class": "not satisfied"}
{"molecule": "COc1ccccc1-c1nn(Cc2ccc(OC)c(C(F)(F)F)c2)c(=O)c2c(C)noc12", "assigned_class": "not satisfied"}
{"molecule": "Cc1noc2c(-c3cccc(C(N)=O)c3)nn(C(C)c3ccc(Cl)cc3)c(=O)c12 (centres unmarked)", "assigned_class": "satisfied"}
{"molecule": "COc1ccc(NC(C)=O)cc1-c1nn([C@@H](C)c2ccc(Cl)cc2)c(=O)c2c(C3CC3)noc12", "assigned_class": "satisfied"}
{"molecule": "CCc1nn([C@@H](c2ccccc2)c2ccc(Cl)cc2)c(=O)c2c(CC)noc12 (single isomer, unassigned)", "assigned_class": "not satisfied"}
{"molecule": "CC(=O)Nc1cc(-c2nn(Cc3ccc(F)c(C(F)(F)F)c3)c(=O)c3c(C)noc23)ccc1F", "assigned_class": "not satisfied"}
{"molecule": "Cc1nn(CCc2ccc(Cl)cc2)c(=O)c2c(C)noc12", "assigned_class": "not satisfied"}
{"molecule": "COc1ccc(-c2nn(Cc3ccc(F)c(C(F)(F)F)c3)c(=O)c3c(C)noc23)c(OC)c1", "assigned_class": "not satisfied"}
